# METHOD: Tmax in mouse at 30 mg/kg, IG
# Assay type: ADME, organism-based
# EXPERIMENTAL_CONDITIONS: in vivo, po
MEASURE_NAME: Tmax
# do not omit the unit; it follows the number

Consider [2H]C([2H])([2H])NC(=O)c1nnc(NC(=O)C2CC2)cc1Nc1cccc(C(=O)Nc2ccc(-c3ncn(C4CC4)n3)cc2)c1OC . Its measured Tmax is 4 h

* * *

# TESTED_SYSTEM: Non-receptor tyrosine-protein kinase TYK2 (Homo sapiens, UniProt P29597)
# Sequence (P29597 whole entry, the tested form may be a part): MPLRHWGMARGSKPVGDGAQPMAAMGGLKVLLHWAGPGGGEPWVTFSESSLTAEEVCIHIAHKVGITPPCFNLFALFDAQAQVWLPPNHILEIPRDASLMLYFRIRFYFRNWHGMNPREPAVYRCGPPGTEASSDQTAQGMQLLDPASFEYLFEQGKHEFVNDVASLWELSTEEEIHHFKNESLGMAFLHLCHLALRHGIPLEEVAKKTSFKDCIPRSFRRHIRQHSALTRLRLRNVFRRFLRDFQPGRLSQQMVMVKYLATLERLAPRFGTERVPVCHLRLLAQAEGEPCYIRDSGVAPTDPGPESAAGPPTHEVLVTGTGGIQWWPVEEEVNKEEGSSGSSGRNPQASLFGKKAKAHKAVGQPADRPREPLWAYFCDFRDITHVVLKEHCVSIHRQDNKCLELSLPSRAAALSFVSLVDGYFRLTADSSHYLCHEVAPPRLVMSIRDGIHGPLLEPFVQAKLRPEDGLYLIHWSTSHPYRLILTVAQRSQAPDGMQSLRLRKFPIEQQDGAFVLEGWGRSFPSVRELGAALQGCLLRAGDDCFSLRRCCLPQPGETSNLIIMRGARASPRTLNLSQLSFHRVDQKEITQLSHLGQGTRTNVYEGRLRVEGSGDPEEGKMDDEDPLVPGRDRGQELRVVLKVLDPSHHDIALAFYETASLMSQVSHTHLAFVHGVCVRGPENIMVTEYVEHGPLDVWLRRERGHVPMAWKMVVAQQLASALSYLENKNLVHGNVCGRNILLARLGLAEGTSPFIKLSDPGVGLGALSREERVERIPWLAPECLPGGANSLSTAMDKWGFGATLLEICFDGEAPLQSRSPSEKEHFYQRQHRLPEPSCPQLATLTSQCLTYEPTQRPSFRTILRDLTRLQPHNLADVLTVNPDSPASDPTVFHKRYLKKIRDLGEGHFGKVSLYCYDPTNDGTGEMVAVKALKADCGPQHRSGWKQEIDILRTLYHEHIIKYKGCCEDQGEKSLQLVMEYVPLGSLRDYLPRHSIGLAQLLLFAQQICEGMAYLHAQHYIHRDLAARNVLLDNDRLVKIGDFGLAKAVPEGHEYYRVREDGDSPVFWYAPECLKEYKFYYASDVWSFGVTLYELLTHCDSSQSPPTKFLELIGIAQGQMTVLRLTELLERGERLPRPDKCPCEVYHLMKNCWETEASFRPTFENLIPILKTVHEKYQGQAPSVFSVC
# METHOD: Inhibition of TYK2 dependent IFNalpha-stimulated STAT3 phosphorylation in human Jurkat cells
MEASURE_NAME: pIC50
Quick note: pIC50 values are minus log10 of concentrations in mol/L.

Consider [2H]C([2H])([2H])NC(=O)c1nnc(NC(=O)C2CC2)cc1Nc1cccc(C(=O)Nc2ccc(-n3cccn3)cc2)c1OC . Its measured pIC50 is 8.19

Consider [2H]C([2H])([2H])NC(=O)c1nnc(NC(=O)C2CC2)cc1Nc1cccc(C(=O)Nc2ccc(-c3ncn(C)n3)cc2)c1OC . Its measured pIC50 is 7.85

Consider [2H]C([2H])([2H])NC(=O)c1nnc(NC(=O)C2CC2)cc1Nc1cccc(C(=O)Nc2ccc(NC(=O)C3CCCC3)cc2)c1OC . Its measured pIC50 is 8.00

Consider [2H]C([2H])([2H])NC(=O)c1nnc(NC(=O)C2CC2)cc1Nc1cccc(C(=O)Nc2ccc(-c3ncn(CC)n3)cc2)c1OC . Its measured pIC50 is 7.37

* * *

# METHOD: Cmax in mouse at 30 mg/kg, IG
# Format: ADME, organism-based
# Set-up: dose 30 mg/kg, route ig
# EXPERIMENTAL_CONDITIONS: in vivo, po
MEASURE_NAME: Cmax (ng/mL)
Quick note: give the figure in ng/mL, leave out the unit.

Consider [2H]C([2H])([2H])NC(=O)c1nnc(NC(=O)C2CC2)cc1Nc1cccc(C(=O)Nc2ccc(-c3ncn(C4CC4)n3)cc2)c1OC . Its measured Cmax is 7100

* * *

# TESTED_SYSTEM: Non-receptor tyrosine-protein kinase TYK2 (Homo sapiens)
# METHOD: Binding affinity to TYK2 JH2 domain (unknown origin) assessed as melting temperature at 10 uM by thermal shift assay
# EXPERIMENTAL_CONDITIONS: tested as the 2H-labelled form
Give Tm for every item shown.

Consider CNC(=O)c1nnc(NC(=O)C2CC2)cc1Nc1cccc(C(=O)Nc2ccc(N3CCCCCC3=O)cc2)c1OC . Its measured Tm is 64.8 °C

Consider CNC(=O)c1nnc(NC(=O)C2CC2)cc1Nc1cccc(C(=O)Nc2ccc(N3CCCCC3=O)cc2)c1OC . Its measured Tm is 66.6 °C

Consider CNC(=O)c1nnc(Nc2ccccn2)cc1Nc1cccc(C(=O)Nc2ccc(N3CCCCC3=O)cc2)c1OC . Its measured Tm is 66.5 °C

Consider CNC(=O)c1nnc(Nc2ccc(F)cn2)cc1Nc1cccc(C(=O)Nc2ccc(N3CCCCC3=O)cc2)c1OC . Its measured Tm is 68.8 °C

Consider CNC(=O)c1nnc(NC(=O)C2CC2)cc1Nc1cccc(C(=O)Nc2ccc(N3CCCCC3=O)c(Cl)c2)c1OC . Its measured Tm is 65.5 °C
